# SYSTEM: Cys12 of the KRAS 4B G12C protein (Homo sapiens, UniProt P01116, G12C)
# Construct: This protein contained 188 amino acids in total, including an N-terminal 6-Histidine tag; made in house; host or cells: E. coli BL21
# ASSAY COMMENT: In vitro covalent adduct formation (CAF) assay, LC-MS intact mass
# Type: binding
# PARTICULARS: 10 uM compound, 60 min
For each entry below, report its % CAF 10 uM @ 60 min value.

Task: Give reported % CAF 10 uM @ 60 min for C=CC(=O)N1C[C@H](C)N(c2nc(=O)n3c4c(c(-c5cc(C=O)c(F)cc5F)c(C(F)(F)F)cc24)SCC2(COC2)C3)C[C@H]1C (Cys12 of the KRAS 4B G12C protein (Homo sapiens, UniProt P01116, G12C))
Result: 69.2%

Task: Give reported % CAF 10 uM @ 60 min for [2H]C([2H])([2H])OC[C@H]1CSc2c(-c3cc(Cl)c(F)cc3F)c(C(F)(F)F)cc3c(N4C[C@@H](C)N(C(=O)C=C)[C@@H](C)C4)nc(=O)n1c23 (Cys12 of the KRAS 4B G12C protein (Homo sapiens, UniProt P01116, G12C))
Result: 92.5%

Task: Give reported % CAF 10 uM @ 60 min for C=CC(=O)N1[C@H](C)CN(c2nc(=O)n3c4c(c(-c5ccc(F)cc5)c(C(F)(F)F)cc24)SC[C@H](CO)C3)C[C@@H]1C (Cys12 of the KRAS 4B G12C protein (Homo sapiens, UniProt P01116, G12C))
Result: 95.5%

---

# SYSTEM: Cys12 of the KRAS 4B G12C protein (Homo sapiens, UniProt P01116, G12C)
# Construct: This protein contained 188 amino acids in total, including an N-terminal 6-Histidine tag; made in house; host or cells: E. coli BL21
# ASSAY COMMENT: In vitro covalent adduct formation (CAF) assay, LC-MS intact mass
# Type: binding
# PARTICULARS: 10 uM compound, 60 min
READOUT LABEL: % CAF 10 uM @ 60 min (%)
The answer is to be given in %; state only the numeric part.

Task: Give reported % CAF 10 uM @ 60 min for C=CC(=O)N1[C@H](C)CN(c2nc(=O)n3c4c(c(-c5ccc(F)c(OC(F)F)c5)c(Cl)cc24)SC[C@@H]3COC)C[C@@H]1C (Cys12 of the KRAS 4B G12C protein (Homo sapiens, UniProt P01116, G12C))
Result: 96

Task: Give reported % CAF 10 uM @ 60 min for C=CC(=O)N1[C@H](C)CN(c2nc(=O)n3c4c(c(-c5cc(Cl)c(F)cc5F)c(C(F)(F)F)cc24)SCC(COC)(COC)C3)C[C@@H]1C (atropisomer, axis not shown) [Example 1420] (Cys12 of the KRAS 4B G12C protein (Homo sapiens, UniProt P01116, G12C))
Result: 93

Task: Give reported % CAF 10 uM @ 60 min for C=CC(=O)N1C[C@H](C)N(c2nc(=O)n3c4c(c(-c5ccc(F)cc5F)c(C(F)(F)F)cc24)SC[C@@H]3COCOC)C[C@H]1C (atropisomer, axis not shown) [Example 1327] (Cys12 of the KRAS 4B G12C protein (Homo sapiens, UniProt P01116, G12C))
Result: 86.3

Task: Give reported % CAF 10 uM @ 60 min for C=CC(=O)N1C[C@H](C)N(c2nc(=O)n3c4c(c(-c5cc(Br)c(F)cc5F)c(C(F)(F)F)cc24)SCC2(CCOCC2)C3)C[C@H]1C (Cys12 of the KRAS 4B G12C protein (Homo sapiens, UniProt P01116, G12C))
Result: 66

Task: Give reported % CAF 10 uM @ 60 min for C=CC(=O)N1CCN(c2nc(=O)n3c4c(c(-c5ccc(F)cc5)c(C(F)(F)F)cc24)SC[C@@H]3CN2CCN(C3CC3)CC2)CC1 (Cys12 of the KRAS 4B G12C protein (Homo sapiens, UniProt P01116, G12C))
Result: 99.3

Task: Give reported % CAF 10 uM @ 60 min for C=CC(=O)N1[C@H](C)CN(c2nc(=O)n3c4c(c(-c5ccc(F)cc5F)c(C(F)(F)F)cc24)SC[C@@H]3CN2C[C@@H]3C[C@H]2CO3)C[C@@H]1C (atropisomer, axis not shown) [Example 1300] (Cys12 of the KRAS 4B G12C protein (Homo sapiens, UniProt P01116, G12C))
Result: 90.8

Task: Give reported % CAF 10 uM @ 60 min for [2H]C([2H])([2H])OC[C@H]1CSc2c(-c3ccc(F)cc3F)c(C(F)(F)F)cc3c(N4C[C@@H](C)N(C(=O)C=C)[C@@H](C)C4)nc(=O)n1c23 (atropisomer, axis not shown) [Example 1423] (Cys12 of the KRAS 4B G12C protein (Homo sapiens, UniProt P01116, G12C))
Result: 95.1

---

For each entry below, report its % CAF @ 10 uM, 1h value.
# SYSTEM: K-Ras G12C (Homo sapiens, UniProt P01116, G12C)
# Construct: This protein contained 188 amino acids in total, including an N-terminal 6-Histidine tag; made in house; host or cells: E. coli BL21
# ASSAY COMMENT: CAF assay (% CAF; method in Example 7, not in this part)
# Type: binding
# PARTICULARS: 10 uM compound, 1 h incubation
The answer is to be given in %; state only the numeric part.

Task: Return % CAF @ 10 uM, 1h for the following compound: C=CC(=O)N1CCN(c2nc(=O)n3c4c(c(-c5cc(F)c(F)cc5F)c(Cl)cc24)SCC3)[C@@H](C)C1
Result: 94

Task: Return % CAF @ 10 uM, 1h for the following compound: C=CC(=O)N1CCN(c2nc(=O)n3c4c(c(-c5cc(Cl)c(F)cc5F)c(C(F)(F)F)cc24)SC[C@@H](OC)C3)[C@@H](C)C1
Result: 91

Task: Return % CAF @ 10 uM, 1h for the following compound: C=CC(=O)N1[C@H](C)CN(c2nc(=O)n3c4c(c(-c5cc(Cl)c(F)cc5F)c(C(F)(F)F)cc24)SC[C@@H]3CN2CCC3(CC2)COC3)C[C@@H]1C (atropisomer, axis not shown) [Example 566]
Result: 77.7

Task: Return % CAF @ 10 uM, 1h for the following compound: C=CC(=O)N1C[C@H](C)N(c2nc(=O)n3c4c(c(-c5ccc(F)cc5F)c(C(F)(F)F)cc24)SC[C@@H]3CN2CCN(CC(F)F)CC2)C[C@H]1C
Result: 83.6

Task: Return % CAF @ 10 uM, 1h for the following compound: C=CC(=O)N1C[C@H](C)N(c2nc(=O)n3c4c(c(-c5ccc(F)cc5F)c(C(F)(F)F)cc24)SC[C@@H]3COC)C[C@H]1C [Example 493]
Result: 78.6

Task: Return % CAF @ 10 uM, 1h for the following compound: C=CC(=O)N1[C@H](C)CN(c2nc(=O)n3c4c(c(-c5ccc(F)cc5F)c(Cl)cc24)SC[C@@H](OC)C3)C[C@@H]1C
Result: 95

Task: Return % CAF @ 10 uM, 1h for the following compound: C=CC(=O)N1C[C@H](C)N(c2nc(=O)n3c4c(c(-c5ccc(F)cc5F)c(Cl)cc24)SC[C@@H]3CC2CCN(C3CC3)CC2)C[C@H]1C
Result: 70.7

Task: Return % CAF @ 10 uM, 1h for the following compound: C=CC(=O)N1CCN(c2nc(=O)n3c4c(c(-c5c(F)cc(F)cc5F)c(Cl)cc24)SC[C@H]3CN2CCN(CC)CC2)[C@@H](C)C1
Result: 13.9

Task: Return % CAF @ 10 uM, 1h for the following compound: C=CC(=O)N1C[C@H](C)N(c2nc(=O)n3c4c(c(-c5cc(Cl)c(F)cc5F)c(Cl)cc24)SC[C@@H]3CN2CCn3c(nnc3C(F)(F)F)C2)C[C@H]1C
Result: 55

Task: Return % CAF @ 10 uM, 1h for the following compound: C=CC(=O)N1C[C@H](C)N(c2nc(=O)n3c4c(c(-c5cc(F)c(F)cc5F)c(Cl)cc24)SC[C@@H]3CC2CCN(CC(F)F)CC2)C[C@H]1C
Result: 53.8

Task: Return % CAF @ 10 uM, 1h for the following compound: C=CC(=O)N1C[C@H](C)N(c2nc(=O)n3c4c(c(-c5cc(Cl)c(F)cc5F)c(C(F)(F)F)cc24)SC[C@@H]3COCCOC)C[C@H]1C (atropisomer, axis not shown) [Example 554]
Result: 11.3

Task: Return % CAF @ 10 uM, 1h for the following compound: C=CC(=O)N1C[C@H](C)N(c2nc(=O)n3c4c(c(-c5cc(Cl)c(F)cc5F)c(C(F)(F)F)cc24)SC[C@@H]3CN2CCN(CC(F)F)CC2)C[C@H]1C (atropisomer, axis not shown) [Example 556]
Result: 73.1

Task: Return % CAF @ 10 uM, 1h for the following compound: C=CC(=O)N1CCN(c2nc(=O)n3c4c(c(-c5ccc(F)cc5F)c(Cl)cc24)SC[C@@H]3CC2CCOCC2)[C@@H](C)C1
Result: 92.8

Task: Return % CAF @ 10 uM, 1h for the following compound: C=CC(=O)N1C[C@H](C)N(c2nc(=O)n3c4c(c(-c5ccc(F)cc5F)c(C(F)(F)F)cc24)SCC2(COC2)C3)C[C@H]1C
Result: 95.9

Task: Return % CAF @ 10 uM, 1h for the following compound: C=CC(=O)N1CCN(c2nc(=O)n3c4c(c(-c5ccc(F)cc5F)c(Cl)cc24)SC2(CC2)C3)[C@@H](C)C1
Result: 25.3

Task: Return % CAF @ 10 uM, 1h for the following compound: C=CC(=O)N1C[C@H](C)N(c2nc(=O)n3c4c(c(-c5ccc(F)cc5)c(Cl)cc24)SC[C@@H]3COC)C[C@H]1C
Result: 76.4

Task: Return % CAF @ 10 uM, 1h for the following compound: C=CC(=O)N1[C@H](C)CN(c2nc(=O)n3c4c(c(-c5ccc(F)cc5F)c(C(F)(F)F)cc24)SCC2(COC2)C3)C[C@@H]1C
Result: 88.6

Task: Return % CAF @ 10 uM, 1h for the following compound: C=CC(=O)N1CCN(c2nc(=O)n3c4c(c(-c5ccc(F)cc5F)c(C(F)(F)F)cc24)SC[C@@H]3COCOC)[C@@H](C)C1 (atropisomer, axis not shown) [Example 549]
Result: 80.2

Task: Return % CAF @ 10 uM, 1h for the following compound: C=CC(=O)N1C2CC(=O)CC1CN(c1nc(=O)n3c4c(c(-c5ccc(F)cc5F)c(C(F)(F)F)cc14)SCCC3)C2
Result: 95

Task: Return % CAF @ 10 uM, 1h for the following compound: C=CC(=O)N1C[C@H](C)N(c2nc(=O)n3c4c(c(-c5ccc(F)cc5F)c(Cl)cc24)SC[C@@H]3CC2CCN(CC(F)F)CC2)C[C@H]1C
Result: 63.5

Task: Return % CAF @ 10 uM, 1h for the following compound: C=CC(=O)N1C[C@H](C)N(c2nc(=O)n3c4c(c(-c5cc(F)c(F)cc5F)c(Cl)cc24)SC[C@@H]3CN2CCC3(CC2)COC3)C[C@H]1C (atropisomer, axis not shown) [Example 484]
Result: 77.9

Task: Return % CAF @ 10 uM, 1h for the following compound: C=CC(=O)N1C[C@H](C)N(c2nc(=O)n3c4c(c(-c5cc(Cl)c(F)cc5F)c(C(F)(F)F)cc24)SC[C@@H]3COCCOC)C[C@H]1C (atropisomer, axis not shown) [Example 555]
Result: 67.6
